Each recorded value in this set is attributed to PubChem BioAssay AID2060507.

# Test system: 519858-162-T-J1-PDC complex spheroid viability
# Test protocol: Anticancer human tumor 519858-162-T-J1-PDC patient-derived colon adenocarcinoma cell line growth inhibition [GQUAD]
# Experimental context: second compound 0.316 µM; first compound 10 µM; hits give low values
Observable: viability, T/C (%)
Just the number in %, nothing appended.

compound="Cc1cccc(N(C)C(=O)C2C(O)CCN2c2nc(C)cc(C(F)(F)F)c2C#N)c1 (stereo not given) + CN(C)c1ccc(Nc2c3ccc(NC(=O)CCN4CCCC4)cc3nc3cc(NC(=O)CCN4CCCC4)ccc23)cc1" obs_value=85.5
compound="C=CC(=O)N1CCN(c2nc(=O)n(-c3c(C)ccnc3C(C)C)c3nc(-c4c(O)cccc4F)c(F)cc23)C(C)C1 (stereo not given) + CN(C)c1ccc(Nc2c3ccc(NC(=O)CCN4CCCC4)cc3nc3cc(NC(=O)CCN4CCCC4)ccc23)cc1" obs_value=60.1
compound="CC(=O)O[C@H]1C(=O)[C@@]2(C)[C@H]([C@H](OC(=O)c3ccccc3)[C@]3(O)C[C@H](OC(=O)[C@H](O)[C@@H](NC(=O)c4ccccc4)c4ccccc4)C(C)=C1C3(C)C)[C@]1(OC(C)=O)CO[C@@H]1C[C@@H]2O + CN(C)c1ccc(Nc2c3ccc(NC(=O)CCN4CCCC4)cc3nc3cc(NC(=O)CCN4CCCC4)ccc23)cc1" obs_value=115

Tell me the measured viability, T/C of C#Cc1c(F)ccc2cc(O)cc(-c3ncc4c(N5CC6CCC(C5)N6)nc(OCC56CCCN5CC(F)C6)nc4c3F)c12 (stereo not given) + Cc1cnc(CNC(=O)c2c(=O)c3ccc(N4CCCN(C)CC4)nc3n3c2sc2ccccc23)cn1 , please. 49.2

Tell me the measured viability, T/C of COc1cc(C2c3cc4c(cc3C(OC3OC5COC(C)OC5C(O)C3O)C3COC(=O)C23)OCO4)cc(OC)c1O (stereo not given) + CN(C)c1ccc(Nc2c3ccc(NC(=O)CCN4CCCC4)cc3nc3cc(NC(=O)CCN4CCCC4)ccc23)cc1 , please. 62.7

----------
Catalogue of viability, T/C values
# Test system: 519858-162-T-J1-PDC complex spheroid viability
# Test protocol: Anticancer human tumor 519858-162-T-J1-PDC cell line growth inhibition [GQUAD];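 note: spheroids exposed to compounds for 7 days; 100% = DMSO vehicle control viability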
# Experimental context: second compound 3.16 µM; first compound 0.1 µM; hits give low values

compound="COc1cc(C2c3cc4c(cc3C(OC3OC5COC(C)OC5C(O)C3O)C3COC(=O)C23)OCO4)cc(OC)c1O (stereo not drawn) + Cc1cnc(CNC(=O)c2c(=O)c3ccc(N4CCCN(C)CC4)nc3n3c2sc2ccccc23)cn1" obs_value=60.3%
compound="O=C(c1cc(Cc2n[nH]c(=O)c3ccccc23)ccc1F)N1CCN(C(=O)C2CC2)CC1 + Cc1cnc(CNC(=O)c2c(=O)c3ccc(N4CCCN(C)CC4)nc3n3c2sc2ccccc23)cn1" obs_value=31.8%

Now examine the next entry.
Tell me the measured viability, T/C of CC(C)(O)C1CCC(Nc2ccc3ncc(-c4cccc(C(F)(F)F)c4)n3n2)CC1 (stereo not drawn) + Cc1cnc(CNC(=O)c2c(=O)c3ccc(N4CCCN(C)CC4)nc3n3c2sc2ccccc23)cn1 , please. 43.1%

----------
# Tested on: 519858-162-T-J1-PDC complex spheroid viability
# Test protocol: Anticancer human tumor 519858-162-T-J1-PDC cell line growth inhibition [GQUAD];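 note: spheroids exposed to compounds for 7 days; 100% = DMSO vehicle control viability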
# Experimental context: second compound 0.0316 µM; first compound 3.16 µM; hits give low values
Observable: viability, T/C (%)
Just the number in %, nothing appended.

molecule="C#Cc1c(F)ccc2cc(O)cc(-c3ncc4c(N5CC6CCC(C5)N6)nc(OCC56CCCN5CC(F)C6)nc4c3F)c12 (stereo not given) + CN(C)c1ccc(Nc2c3ccc(NC(=O)CCN4CCCC4)cc3nc3cc(NC(=O)CCN4CCCC4)ccc23)cc1" system_tested="519858-162-T-J1-PDC complex spheroid viability" obs_value=72
molecule="CC(=O)O[C@H]1C(=O)[C@@]2(C)[C@H]([C@H](OC(=O)c3ccccc3)[C@]3(O)C[C@H](OC(=O)[C@H](O)[C@@H](NC(=O)c4ccccc4)c4ccccc4)C(C)=C1C3(C)C)[C@]1(OC(C)=O)CO[C@@H]1C[C@@H]2O + CN(C)c1ccc(Nc2c3ccc(NC(=O)CCN4CCCC4)cc3nc3cc(NC(=O)CCN4CCCC4)ccc23)cc1" system_tested="519858-162-T-J1-PDC complex spheroid viability" obs_value=61.9
molecule="COc1ncnc(C2CC2)c1-c1ncc2cnn(Cc3ccc(-c4nc(C(F)(F)F)cn4C(C)C)cc3)c2n1 + Cc1cnc(CNC(=O)c2c(=O)c3ccc(N4CCCN(C)CC4)nc3n3c2sc2ccccc23)cn1" system_tested="519858-162-T-J1-PDC complex spheroid viability" obs_value=90.6
molecule="C#Cc1c(F)ccc2cc(O)cc(-c3ncc4c(N5CC6CCC(C5)N6)nc(OCC56CCCN5CC(F)C6)nc4c3F)c12 (stereo not given) + Cc1cnc(CNC(=O)c2c(=O)c3ccc(N4CCCN(C)CC4)nc3n3c2sc2ccccc23)cn1" system_tested="519858-162-T-J1-PDC complex spheroid viability" obs_value=78.2
molecule="C=CCn1c(=O)c2cnc(Nc3ccc(N4CCN(C)CC4)cc3)nc2n1-c1cccc(C(C)(C)O)n1 + CN(C)c1ccc(Nc2c3ccc(NC(=O)CCN4CCCC4)cc3nc3cc(NC(=O)CCN4CCCC4)ccc23)cc1" system_tested="519858-162-T-J1-PDC complex spheroid viability" obs_value=75.2
molecule="COc1ccc([C@@H](O)c2cc(-c3ncnc4cc(N5CCOCC5)ccc34)c(F)cc2Cl)nn1 + Cc1[nH]c2ccc(F)cc2c1-c1nc2c3cccnc3c3ncccc3c2[nH]1" system_tested="519858-162-T-J1-PDC complex spheroid viability" obs_value=74.1

Tell me the measured viability, T/C of CC1COCCN1c1cc(C2(S(C)(=N)=O)CC2)nc(-c2ccnc3[nH]ccc23)n1 (stereo not given) + Cc1[nH]c2ccc(F)cc2c1-c1nc2c3cccnc3c3ncccc3c2[nH]1 , please. 82.8

Tell me the measured viability, T/C of CC(C)(O)C1CCC(Nc2ccc3ncc(-c4cccc(C(F)(F)F)c4)n3n2)CC1 (stereo not given) + Cc1cnc(CNC(=O)c2c(=O)c3ccc(N4CCCN(C)CC4)nc3n3c2sc2ccccc23)cn1 , please. 11

Tell me the measured viability, T/C of C#Cc1c(F)ccc2cc(O)cc(-c3ncc4c(N5CC6CCC(C5)N6)nc(OCC56CCCN5CC(F)C6)nc4c3F)c12 (stereo not given) + Cc1[nH]c2ccc(F)cc2c1-c1nc2c3cccnc3c3ncccc3c2[nH]1 , please. 72.3

Tell me the measured viability, T/C of COc1cccc2c1C(=O)c1c(O)c3c(c(O)c1C2=O)CC(O)(C(=O)CO)CC3OC1CC(N)C(O)C(C)O1 (stereo not given) + Cc1[nH]c2ccc(F)cc2c1-c1nc2c3cccnc3c3ncccc3c2[nH]1 , please. 82.1

Tell me the measured viability, T/C of CC1COCCN1c1cc(-c2ccnn2C)c2ccnc(-c3ccn[nH]3)c2n1 (stereo not given) + Cc1cnc(CNC(=O)c2c(=O)c3ccc(N4CCCN(C)CC4)nc3n3c2sc2ccccc23)cn1 , please. 38.9

Tell me the measured viability, T/C of C=CC(=O)N1CCN(c2nc(=O)n(-c3c(C)ccnc3C(C)C)c3nc(-c4c(O)cccc4F)c(F)cc23)C(C)C1 (stereo not given) + Cc1[nH]c2ccc(F)cc2c1-c1nc2c3cccnc3c3ncccc3c2[nH]1 , please. 90.9

Tell me the measured viability, T/C of COc1cccc2c1C(=O)c1c(O)c3c(c(O)c1C2=O)CC(O)(C(=O)CO)CC3OC1CC(N)C(O)C(C)O1 (stereo not given) + CN(C)c1ccc(Nc2c3ccc(NC(=O)CCN4CCCC4)cc3nc3cc(NC(=O)CCN4CCCC4)ccc23)cc1 , please. 71

Tell me the measured viability, T/C of CC1COCCN1c1cc(-c2ccnn2C)c2ccnc(-c3ccn[nH]3)c2n1 (stereo not given) + CN(C)c1ccc(Nc2c3ccc(NC(=O)CCN4CCCC4)cc3nc3cc(NC(=O)CCN4CCCC4)ccc23)cc1 , please. 54

Tell me the measured viability, T/C of Cc1cccc(N(C)C(=O)C2C(O)CCN2c2nc(C)cc(C(F)(F)F)c2C#N)c1 (stereo not given) + CN(C)c1ccc(Nc2c3ccc(NC(=O)CCN4CCCC4)cc3nc3cc(NC(=O)CCN4CCCC4)ccc23)cc1 , please. 91.1

Tell me the measured viability, T/C of CC(C)(O)C1CCC(Nc2ccc3ncc(-c4cccc(C(F)(F)F)c4)n3n2)CC1 (stereo not given) + Cc1[nH]c2ccc(F)cc2c1-c1nc2c3cccnc3c3ncccc3c2[nH]1 , please. 16.1

Tell me the measured viability, T/C of Nc1ccn(C2OC(CO)C(O)C2(F)F)c(=O)n1 (stereo not given) + Cc1[nH]c2ccc(F)cc2c1-c1nc2c3cccnc3c3ncccc3c2[nH]1 , please. 83

Tell me the measured viability, T/C of CC1COCCN1c1cc(C2(S(C)(=N)=O)CC2)nc(-c2ccnc3[nH]ccc23)n1 (stereo not given) + CN(C)c1ccc(Nc2c3ccc(NC(=O)CCN4CCCC4)cc3nc3cc(NC(=O)CCN4CCCC4)ccc23)cc1 , please. 98.3

Tell me the measured viability, T/C of COc1cc(C2c3cc4c(cc3C(OC3OC5COC(C)OC5C(O)C3O)C3COC(=O)C23)OCO4)cc(OC)c1O (stereo not given) + CN(C)c1ccc(Nc2c3ccc(NC(=O)CCN4CCCC4)cc3nc3cc(NC(=O)CCN4CCCC4)ccc23)cc1 , please. 80.7

Tell me the measured viability, T/C of CC1COCCN1c1cc(C2(O)CC3CCC(C2)O3)c2cnn(-c3ccn[nH]3)c2n1 (stereo not given) + Cc1cnc(CNC(=O)c2c(=O)c3ccc(N4CCCN(C)CC4)nc3n3c2sc2ccccc23)cn1 , please. 82
